The reported numbers originate from PubChem BioAssay (NCI).

Tested on: SK-MEL-5 melanoma
Test: NCI tumour cell line growth inhibition, 48 h
Binary call on TGI: satisfied from 10 µM upward, not satisfied beneath that.

# count of solved cases: 2
Query: TGI >= 10 µM for CN1C(=O)N/C(=C\c2ccc(S(=O)(=O)N/N=C\C(O)C(O)C(O)CO)cc2)C1=O (configuration not stated) ?
Result: satisfied

Query: Given ClCCN1CCOC1=Nc1ccc2c(c1)CCCC2 , state whether its TGI is at least 10 µM.
Result: not satisfied

***
Query: Quick check, TGI >= 10 µM? O=C(c1cc2ccccc2o1)N(Cc1ccccc1)c1ccccc1
Result: satisfied

Query: State whether the measured TGI reaches 10 µM, counting equality as reaching it, for O=C(Nc1cccc(Oc2nnc(Cl)c3ccccc23)c1)Nc1ccc(Cl)c(C(F)(F)F)c1
Result: not satisfied

Query: Check if TGI >= 10 µM (inclusive). Item: O=[N+]([O-])c1ccc2c(N3CCC(CCCC4CCN(c5ncnc6cc([N+](=O)[O-])ccc56)CC4)CC3)ncnc2c1
Result: satisfied

Query: Item NC(=S)Nc1cc(Cl)ccc1Cl with TGI of 10 µM or above?
Result: satisfied

Query: Would you say CCSC1(SCC)CC(Cc2ccc(OC)cc2)N(C=NC(C)(C)C)C1 (configuration not stated) shows TGI at minimum 10 µM?
Result: satisfied

Query: # check: TGI of Cn1cc(C2=C(c3cccnc3)C(=O)NC2=O)c2ccccc21 is greater than or equal to 10 µM
Result: satisfied

Query: Is TGI at least 10 µM? Consider CCCCOC(=O)NC(Nc1ccc(S(=O)(=O)Nc2ccc(OC)nn2)cc1)(C(F)(F)F)C(F)(F)F
Result: satisfied

Query: Entry CC(O)C(N=Cc1nc(-c2ccccc2)oc1O)C(=O)O (configuration not stated) : is its TGI no less than 10 µM?
Result: satisfied

Query: Check this compound for TGI at or above 10 µM: CC1CCC(O)(C(C)(C(=O)O)c2ccccc2)CC1 (configuration not stated)
Result: satisfied

Query: I'd appreciate it if you could say whether O=C(O)C1=C(C(=O)O)N(c2ccncc2)C(c2ccco2)=CC1c1ccccc1[N+](=O)[O-] (configuration not stated) has TGI at least equal to 10 µM.
Result: satisfied

Query: Could you tell me if the measured TGI of CSC1=NC(C(N)=O)C(N)N1C (configuration not stated) reaches 10 µM or more?
Result: satisfied

Query: TGI >= 10 µM for C=CC[P+](c1ccccc1)(c1ccccc1)c1ccccc1 ?
Result: not satisfied

Query: Determine whether this compound has TGI no lower than 10 µM: CCCCCCCCOC(CO)CO
Result: satisfied

Query: Check this compound for TGI at or above 10 µM: O=S(=O)(O)c1ccc(-c2nnc(-c3ccccn3)nc2-c2ccc(S(=O)(=O)O)o2)o1
Result: satisfied

Query: Assess whether reported TGI for CC(=O)c1c(C)n(C)c2c1nnc1ccccc12 sits at 10 µM or higher.
Result: satisfied

Query: I'd appreciate it if you could say whether O=C1c2ccccc2C(=Cc2ccccc2)c2ccccc21 has TGI at least equal to 10 µM.
Result: satisfied

Query: Check this compound for TGI at or above 10 µM: Nc1ccc(N=Nc2ccc(-c3ccc(O)cc3)cc2)c2ccc(S(=O)(=O)O)cc12
Result: satisfied

Query: Determine whether measured TGI meets or exceeds 10 µM for O=C(CCl)NC(Cc1ccc(F)cc1)C(=O)O (configuration not stated)
Result: satisfied

Query: Does the reported TGI for COc1c(NC(C)=O)cc(C)cc1NC(C)=O fall at or above the 10 µM mark?
Result: satisfied

Query: Reported TGI at or above 10 µM? CC(C)(C)c1[nH]cnc1/C=c1\[nH]c(=O)/c(=C/c2ccccc2)[nH]c1=O
Result: not satisfied
